assay: in vitro; conditions: rat, microsomes, pH 7.4
Cut-off 200 µL/min/mg on microsomal CLint at 1 μM, inclusive. At or above means Met; below means Not met.

Compound	Class assignment
O=C(NC1CCC(F)(F)CC1)c1ccc2c(c1)N=C(c1cccc(Cl)c1)c1ccccc1S2 [drawing 1715]	Not met
C[C@@H]1CCC[C@H](C)N1NC(=O)c1ccc2c(c1)N=C(c1cccc(Cl)c1)c1ccccc1S2 [drawing 1720]	Met
CC(C)CCNC(=O)c1ccc2c(c1)N=C(c1cccc(F)c1)c1ccccc1S2 [drawing 1713]	Not met
CC(C)CCNC(=O)c1ccc2c(c1)N=C(c1ccc(F)cc1)c1ccccc1S2 [drawing 1771]	Met
CC(CNC(=O)c1ccc2c(c1)N=C(c1ccc(F)cc1)c1ccccc1S2)c1ccccc1 (stereo not drawn) [drawing 1797]	Met
CCN(CCNC(=O)c1ccc2c(c1)N=C(c1cccc(Cl)c1)c1ccccc1S2)c1ccccc1 [drawing 1751]	Met
O=C(NCc1cccc(Cl)c1)c1ccc2c(c1)N=C(N1CCCCC1)c1ccccc1S2(=O)=O [drawing 1798]	Met
O=C(NCc1ccc(F)cc1)c1ccc2c(c1)N=C(c1cccc(Cl)c1)c1ccccc1S2 [drawing 1662]	Not met
CCCCNC(=O)c1ccc2c(c1)N=C(c1ccc(Cl)cc1)c1ccc(Cl)cc1S2 [drawing 1732]	Not met
O=C(NN1CCCCCC1)c1ccc2c(c1)N=C(c1cccc(F)c1)c1ccccc1S2 [drawing 1693]	Met
O=C(NCc1ccccc1Cl)c1ccc2c(c1)N=C(c1ccccc1F)c1ccccc1S2 [drawing 1794]	Not met
O=C(NCc1ccco1)c1ccc2c(c1)N=C(c1cccc(F)c1)c1ccccc1S2 [drawing 1754]	Not met

The measurements presented in this section are drawn from patent US20080090805A1.
